# ASSAY COMMENT: Metabolic stability in rat liver microsome after 20 mins by HPLC in presence of NADPH
# Type: ADME
# ASSAY CONDITIONS: liver microsomes, read-out: Stability
Entries and their microsomal CLint

{"COMPOUND": "CCC(CC)(NC(=O)c1c(C)nn2c1N[C@@H](c1ccccc1)CC2(C)C)c1ccc(OCc2ccccc2)cc1", "microsomal CLint": "48 µL/min/mg"}
{"COMPOUND": "CCC(CC)(NC(=O)c1c(SC)nn2c1NC(c1ccccc1)CC2(C)C)c1ccc(C)cc1.Cl (racemic)", "microsomal CLint": "154 µL/min/mg"}
{"COMPOUND": "CCCCc1nn2c(c1C(=O)NC(CC)(CC)c1ccc(C)cc1)NC(c1ccccc1)CC2(C)C.Cl (racemic)", "microsomal CLint": "136 µL/min/mg"}
{"COMPOUND": "CCC(CC)(NC(=O)c1c(C)nn2c1N[C@@H](c1ccccc1)CC2(C)C)c1ccc(Cl)c(OC)c1.Cl", "microsomal CLint": "189 µL/min/mg"}
{"COMPOUND": "CCOc1ccc(C(CC)(CC)NC(=O)c2c(C)nn3c2N[C@@H](c2ccccc2)CC3(C)C)cc1.Cl", "microsomal CLint": "132 µL/min/mg"}
{"COMPOUND": "CCC(CC)(NC(=O)c1c(C)nn2c1N[C@@H](c1ccccc1)CC2(C)C)c1ccc(F)c(OC)c1", "microsomal CLint": "218 µL/min/mg"}
{"COMPOUND": "CCCc1nn2c(c1C(=O)NC(CC)(CC)c1ccc(C)cc1)NC(c1ccccc1)CC2(C)C.Cl (racemic)", "microsomal CLint": "159 µL/min/mg"}
{"COMPOUND": "CCC(CC)(NC(=O)c1c(C)nn2c1N[C@@H](c1ccccc1)CC2(C)C)c1ccc(OC)c(OC)c1", "microsomal CLint": "180 µL/min/mg"}
